Measured Mean Energy Expenditure (0-3h), listed per entry for reference.
- Tested on: Female CD1 mice
- Assay notes: Effect on energy expenditure of mice (oxygen consumption, oral dosing)
- Type: in vivo
- Protocol conditions: p.o. in water, 0-3h after dosing, percentage of the rate of energy expenditure of the mice dosed with water, dose differs per compound (Dose mg/kg p.o.)
Structures can show the parent of a compound that is named as a salt.
The number alone won't do; follow it with the unit.

Below, each entry is followed by its recorded Mean Energy Expenditure (0-3h) result.
COC(=O)c1ccc(C[C@@H](C)N(C[C@@H](O)COc2ccccc2)C[C@@H](O)COc2ccccc2)cc1 [Example 2]; 122 percentage
CC(Cc1ccc(OCC(N)=O)cc1)N(CC(O)COc1ccccc1)CC(O)c1cccc(Cl)c1.Cl (stereo not shown) [Example 8]; 158 percentage
COC(=O)c1ccc(CC(C)N(CC(O)COc2ccccc2)CC(O)c2ccc(O)c(CO)c2)cc1 (stereo not shown) [Example 9]; 111 percentage

Notebook: C[C@H](Cc1ccc(OCC(N)=O)cc1)N(C[C@H](O)COc1ccccc1)C[C@H](O)c1ccccc1 [Example 16, hydrochloride, hemihydrate] , Mean Energy Expenditure (0-3h) read as 151 percentage
